Experiment: cells
Format: functional, cell-based
experimental endpoint: EC50

compound=O=C(C[n+]1ccn(CCCNP2(=O)C=C(c3ccccc3)OC(c3ccccc3)=C2)c1)c1cccs1 recorded_value="> 350 µM (not active)"
compound="Cc1ccc(C2(C)NC(=O)N(CC(=O)NC(=O)NC(C)(C)C)C2=O)cc1 (centres undefined)" recorded_value="> 350 µM (not active)"
compound=OCCNc1c2ccccc2nc2ccccc12 recorded_value="> 350 µM (not active)"
compound=Cc1cccc(/C=N/NC(=O)c2c(-c3ccccc3)noc2C)c1O recorded_value="> 350 µM (not active)"

====

Biological target: Fatty acid synthase (Homo sapiens)
Sequence (P49327 whole entry): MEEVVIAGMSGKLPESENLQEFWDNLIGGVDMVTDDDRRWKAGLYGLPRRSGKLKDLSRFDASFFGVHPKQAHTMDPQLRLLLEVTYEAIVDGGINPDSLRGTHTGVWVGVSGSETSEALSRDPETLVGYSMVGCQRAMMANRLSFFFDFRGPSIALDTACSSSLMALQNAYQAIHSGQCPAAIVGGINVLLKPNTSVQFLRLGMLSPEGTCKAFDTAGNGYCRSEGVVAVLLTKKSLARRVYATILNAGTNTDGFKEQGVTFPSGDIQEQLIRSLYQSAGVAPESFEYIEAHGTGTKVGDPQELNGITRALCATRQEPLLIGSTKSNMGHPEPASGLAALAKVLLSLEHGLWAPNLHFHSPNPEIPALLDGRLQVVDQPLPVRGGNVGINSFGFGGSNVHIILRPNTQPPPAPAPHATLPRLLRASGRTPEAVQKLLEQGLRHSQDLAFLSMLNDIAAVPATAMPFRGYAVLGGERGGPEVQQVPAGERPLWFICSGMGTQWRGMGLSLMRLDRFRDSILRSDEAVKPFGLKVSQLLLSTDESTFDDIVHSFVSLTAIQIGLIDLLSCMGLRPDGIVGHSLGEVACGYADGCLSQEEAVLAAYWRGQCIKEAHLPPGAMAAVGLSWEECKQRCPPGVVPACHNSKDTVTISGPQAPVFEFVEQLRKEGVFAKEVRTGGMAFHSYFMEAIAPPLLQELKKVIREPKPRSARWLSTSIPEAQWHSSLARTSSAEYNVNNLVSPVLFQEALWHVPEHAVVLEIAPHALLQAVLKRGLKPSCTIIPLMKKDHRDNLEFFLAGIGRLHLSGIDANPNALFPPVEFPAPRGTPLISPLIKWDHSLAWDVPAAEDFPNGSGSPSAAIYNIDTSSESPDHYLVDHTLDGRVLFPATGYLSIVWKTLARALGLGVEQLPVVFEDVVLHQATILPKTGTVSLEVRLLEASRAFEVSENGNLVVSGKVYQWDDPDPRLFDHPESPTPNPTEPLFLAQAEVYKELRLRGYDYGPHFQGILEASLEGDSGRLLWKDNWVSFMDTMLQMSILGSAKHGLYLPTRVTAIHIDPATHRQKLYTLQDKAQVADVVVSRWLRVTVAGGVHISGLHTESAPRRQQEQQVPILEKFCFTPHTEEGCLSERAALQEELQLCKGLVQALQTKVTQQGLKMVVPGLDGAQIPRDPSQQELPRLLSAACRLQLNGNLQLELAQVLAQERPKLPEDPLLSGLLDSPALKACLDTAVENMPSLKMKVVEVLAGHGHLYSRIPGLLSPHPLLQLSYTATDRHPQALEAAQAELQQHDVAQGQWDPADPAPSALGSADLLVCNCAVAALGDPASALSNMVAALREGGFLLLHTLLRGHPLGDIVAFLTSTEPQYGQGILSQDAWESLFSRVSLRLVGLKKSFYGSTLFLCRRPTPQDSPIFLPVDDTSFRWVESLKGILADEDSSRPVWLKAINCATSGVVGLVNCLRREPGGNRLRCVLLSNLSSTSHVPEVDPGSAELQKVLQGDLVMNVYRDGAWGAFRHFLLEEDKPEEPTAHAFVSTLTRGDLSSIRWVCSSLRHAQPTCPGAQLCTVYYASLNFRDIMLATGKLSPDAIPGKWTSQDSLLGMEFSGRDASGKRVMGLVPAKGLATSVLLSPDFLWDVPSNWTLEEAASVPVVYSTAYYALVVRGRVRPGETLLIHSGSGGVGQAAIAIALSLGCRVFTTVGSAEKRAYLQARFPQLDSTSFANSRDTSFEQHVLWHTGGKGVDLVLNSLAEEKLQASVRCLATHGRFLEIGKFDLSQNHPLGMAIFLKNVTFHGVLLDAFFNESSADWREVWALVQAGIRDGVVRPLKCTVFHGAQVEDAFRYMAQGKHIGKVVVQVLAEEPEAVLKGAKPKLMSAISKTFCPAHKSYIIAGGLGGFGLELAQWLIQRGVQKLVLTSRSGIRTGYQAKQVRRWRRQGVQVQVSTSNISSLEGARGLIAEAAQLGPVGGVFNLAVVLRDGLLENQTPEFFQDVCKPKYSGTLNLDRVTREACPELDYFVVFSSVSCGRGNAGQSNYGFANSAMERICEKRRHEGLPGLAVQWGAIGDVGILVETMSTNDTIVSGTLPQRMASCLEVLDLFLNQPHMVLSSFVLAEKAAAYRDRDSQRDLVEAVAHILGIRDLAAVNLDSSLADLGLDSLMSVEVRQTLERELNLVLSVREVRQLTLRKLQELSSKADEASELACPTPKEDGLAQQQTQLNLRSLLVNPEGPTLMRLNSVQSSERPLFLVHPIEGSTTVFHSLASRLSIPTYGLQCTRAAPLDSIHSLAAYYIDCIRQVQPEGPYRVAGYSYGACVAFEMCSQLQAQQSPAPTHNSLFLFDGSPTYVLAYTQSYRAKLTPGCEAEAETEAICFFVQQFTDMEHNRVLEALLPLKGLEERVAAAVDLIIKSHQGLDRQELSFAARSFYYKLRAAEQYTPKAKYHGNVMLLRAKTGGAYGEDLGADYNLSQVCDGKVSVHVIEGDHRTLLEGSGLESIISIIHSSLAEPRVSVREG
Test: inhibition of human FAS-TE enzyme activity – biochemical, endpoint fluorescence intensity, uHTS hits, dose response (AID 624327);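 further: fluorescence from hydrolysis of an O-methyl fluorescein acyl ester substrate by the enzyme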
Assay type: functional
The source made the active and inactive calls.
experimental endpoint: IC50

molecule=O=[N+]([O-])c1ccc(Cl)c(S(=O)(=O)Nc2cccc(-c3ccc(N4CCCC4)nn3)c2)c1 experimental_endpoint=IC50 recorded_value="8750 nM (active)"
molecule="COc1ccc(C(=O)NC(CC(=O)O)c2cc([N+](=O)[O-])ccc2Cl)c(SC)c1 (stereo not given)" experimental_endpoint=IC50 recorded_value="7330 nM (active)"
molecule="O=C(CC(C(=O)O)c1ccc(Cl)cc1)c1ccc(Cl)c(Cl)c1 (stereo not given)" experimental_endpoint=IC50 recorded_value="2110 nM (active)"
molecule=C=CCn1c(SCc2cc([N+](=O)[O-])cc3c2OCOC3)nc2cc(C(=O)O)ccc2c1=O experimental_endpoint=IC50 recorded_value="2570 nM (active)"
molecule=C=CCNC(=O)/C(=C\c1ccc(OC)cc1)NC(=O)c1ccc([N+](=O)[O-])cc1 experimental_endpoint=IC50 recorded_value="2930 nM (active)"
